Data provenance: patent US20180235221A1

Tested on: Qol resistant Pyricularia oryzae isolate (1328)
Assay type: cell-based
Conditions: single active compound, 0.063 ppm; MTP, 405 nm, 7 days after inoculation
Reported Observed efficacy values follow for various compounds
Metric: Observed efficacy

compound="CNC(=O)C(=N/OC)/C(C)=C\\COc1ccn(-c2ccc(Cl)cc2Cl)n1 [Compound I-3]" metric="Observed efficacy" value_observed=2%
compound="CNC(=O)C(=N/OC)/C(C)=C\\COc1ccn(-c2ccc(Cl)cc2)n1 [Compound I-1]" metric="Observed efficacy" value_observed=1%
compound="Cn1nnn(-c2cccc(F)c2COc2ccn(-c3ccc(Cl)cc3)n2)c1=O [II-4]" metric="Observed efficacy" value_observed=1%
compound="CC(=NOCc1c(C)cccc1-n1nnn(C)c1=O)c1cccc(C(F)(F)F)c1 [II-11]" metric="Observed efficacy" value_observed=2%
